Data provenance is paper PMC4154663.

- ASSAYED_TARGET: T1, TCF/Pangolin HMG + C-clamp fragment (UniProt P91943 273-400)
- T1 sequence: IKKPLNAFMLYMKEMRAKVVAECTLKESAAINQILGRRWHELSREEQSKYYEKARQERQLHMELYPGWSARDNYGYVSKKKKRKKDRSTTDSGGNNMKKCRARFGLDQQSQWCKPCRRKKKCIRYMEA
- TEST_DETAILS: competition EMSA; labeled AK6 probe; 10 mM Tris-HCl pH 7.5, 50 mM KCl, 1 mM DTT, 50 mM MgCl2 (so in the source), 0.05% NP40, 3.5% glycerol, 50 ug/ml poly(dIdC); 6 pmol protein, 0-2.4 pmol competitor, 20
- COND: protein: recombinant; tags: His (pET52b(+), XmaI/SacI); blunt; printed reverse strand is mismatched at its last 2 nt (atcgac vs atcgta)
MEASURE: IC50 (nM)
Kindly answer with a numeric value in nM, unit omitted.

May I ask what IC50 has been recorded for AK6 competitor (dsDNA) DNA 1: TACGATAAGATCAAAGGTGCAGTGCCGCCAGTCGTA DNA 2: TACGACTGGCGGCACTGCACCTTTGATCTTATCGAC ?
5.1
